target: T1, Claudin 18.2 VLP (UniProt P56856 1-261); assay: ELISA, coated antigen 200 ng/well; antibody 0 ug/mL (blank well, background)
T1 construct: Antigen coated on ELISA plates, 200 ng/well; source and construct not described; also called Claudin18.2-VLP protein; Claudin18.2 VLP antigen

| binder | absorbance at 450 nm |
| --- | --- |
| 10-hIgG1Fc (Fc fusion, VHH-hIgG1Fc recombinant antibody; also called 10-hlgG1Fc; VHH-hIgG1Fc recombinant antibody of clone 10; not shown: human IgG1 Fc (hIgG1Fc)) QVQLAESGGGLVQPGGSLRLSCAASGNILSINYMGWYRQAPGKERELVATITRGGTTNYQGDLKGRFIISGDNTKDTVYLQMNNLQPEDTAVYYCYFRINFGILGGLRDYWGQGTQVTVSS | 0.311 |
| 8-hIgG1Fc (Fc fusion, VHH-hIgG1Fc recombinant antibody; also called 8-hlgG1 Fc; VHH-hIgG1Fc recombinant antibody of clone 8; not shown: human IgG1 Fc (hIgG1Fc)) QVQLVESGGGLVQPGGSLRLSCAASGSIFGLNFMGWWRQAPGSQRELVAIATSGGSIQYGDSVKGRFTISRDNAKNTVYLQMASLKPEDTAVYYCNVHTYDFLGRDYWGQGTQVTVSL | 0.289 |
| 5-hIgG1Fc (Fc fusion, VHH-hIgG1Fc recombinant antibody; also called 5-hlgG1Fc; VHH-hIgG1Fc recombinant antibody of clone 5; not shown: human IgG1 Fc (hIgG1Fc)) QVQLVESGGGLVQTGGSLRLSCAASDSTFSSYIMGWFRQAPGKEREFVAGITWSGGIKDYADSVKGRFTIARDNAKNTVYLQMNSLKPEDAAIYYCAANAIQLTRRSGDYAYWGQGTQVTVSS | 0.247 |
| 1-hIgG1Fc (Fc fusion, VHH-hIgG1Fc recombinant antibody; also called 1-hlgG1Fc; VHH-hIgG1Fc recombinant antibody of clone 1; not shown: human IgG1 Fc (hIgG1Fc)) EVQLVGSGGGLVQPGGSLRLSCAASGSILNLMTTGWYRQAPGKQRDLVATITFGGTTNYADSVKGRFTISRDKSKNTAYLQMDNLKPEDTAVYFCYADVIVGFQDRRVAWDAGTQVTVSS | 0.275 |
